Values compiled from ChEMBL document CHEMBL5036319.

Test system: Raji
Assay: Cytotoxicity against human Raji cells assessed as reduction in cell viability measured after 24 hrs by CCK-8 assay
Format: functional, cell-based
Listing of recorded pIC50 by entry.
Please treat pIC50 as minus the base-10 logarithm of the molar concentration.

The examples below pair each entry with its known result.
Compound	pIC50
C=CC(=O)N1C(=O)CC(c2ccccc2Cl)Sc2ccccc21 (configuration not stated)	4.30
C=CC(=O)N1C(=O)CCSc2ccccc21	3.24
C=CC(=O)N1C(=O)CC(c2cccs2)Sc2ccccc21 (configuration not stated)	3.18
C=CC(=O)N1C(=O)CC(c2ccccc2)Sc2ccccc21 (configuration not stated)	4.13
C=CC(=O)N1C(=O)CC(c2cccc(Cl)c2)Sc2ccccc21 (configuration not stated)	4.33

Data request: Look up pIC50 for this compound: C=CC(=O)N1C(=O)CC(C)Sc2ccccc21 (configuration not stated)
Data returned: 3.08

Data request: Note, next up: C=CC(=O)N1C(=O)CC(c2ccccc2C(F)(F)F)Sc2ccccc21 (configuration not stated)
Data returned: 4.30

====

System: NB4-DR1
Experiment: Antiproliferative activity against human NB4-DR1 cells assessed as reduction in cell viability incubated for 24 hrs by CCK-8 assay
Format: functional, cell-based
Conditions: NB4-DR1, 24 h
Listing of recorded pIC50 by entry.
Please treat pIC50 as minus the base-10 logarithm of the molar concentration.

The examples below pair each entry with its known result.
Compound	Outcome Measure	Observed
C=CC(=O)N1C(=O)CC(c2ccc(Cl)cc2)Sc2ccccc21 (centres undefined)	pIC50	4.32
[Cl-].[Li+]	pIC50	1.37
C=CC(=O)N1C(=O)CC(c2ccc(C(=O)OC)cc2)Sc2ccccc21 (centres undefined)	pIC50	4.03

Then this compound:
Data request: Which measured pIC50 belongs to C=CC(=O)N1C(=O)CC(c2ccc(F)cc2)Sc2ccccc21 (centres undefined) , tested on NB4-DR1?
Data returned: 4.58

====

Experiment: Cytotoxicity against human L02 assessed as cell viability at 100 uM incubated for 24 hrs by CCK-8 assay relative to control
Type: cell-based
Conditions: L02 cells, read-out: Activity
Outcome Measure: viability at 24 h, 100 µM

Data request: Look up viability at 24 h, 100 µM for this compound: C=CC(=O)N1C(=O)CC(c2ccc(F)cc2)Sc2ccccc21 (stereo unspecified)
Data returned: > 70%

====

Experiment: AUClast in ICR mouse at 15 mg/kg, ip administered as single dose measured upto 8 hrs by LC-MS/MS analysis
Format: ADME, organism-based
Design: route intraperitoneal, dose 15 mg/kg, time <=8
Conditions: in vivo
Outcome Measure: AUC(0-t) at 8 h

Data request: Look up AUC(0-t) at 8 h for this compound: C=CC(=O)N1C(=O)CC(c2ccc(F)cc2)Sc2ccccc21 (stereo unspecified)
Data returned: 3500 ng·h/mL

====

Test system: Raji
Assay: Cytotoxicity against human Raji cells assessed as reduction in cell viability measured after 24 hrs by CCK-8 assay
Type: functional, cell-based
Listing of recorded IC50 by entry.
Field: numeric (µM). Do not append units.

Compound	System Name	IC50 [µM]
C=CC(=O)N1C(=O)CC(c2ccc(OC)cc2)Sc2ccccc21 (stereo unspecified)	Raji	43.2

Then this compound:
Data request: Look up IC50 for this compound: C=CC(=O)N1C(=O)CC(c2ccc(C)cc2)Sc2ccccc21 (stereo unspecified)
Data returned: 75.5

====

Test: Cytotoxicity against HUVEC assessed as cell viability at 0 to 50 uM incubated for 24 hrs by CCK-8 assay relative to control
Format: cell-based
Settings: human, dose 0-50 µM, read-out: Activity
Outcome Measure: viability at 24 h, up to 50 µM

The examples below pair each entry with its known result.
Compound	viability at 24 h, up to 50 µM
C=CC(=O)N1C(=O)CC(c2ccc(C(=O)OC)cc2)Sc2ccccc21 (stereo not drawn)	> 80%
C=CC(=O)N1C(=O)CC(c2ccc(F)cc2)Sc2ccccc21 (stereo not drawn)	> 80%

Then this compound:
Data request: Look up viability at 24 h, up to 50 µM for this compound: C=CC(=O)N1C(=O)CC(c2ccc(Cl)cc2)Sc2ccccc21 (stereo not drawn)
Data returned: > 80%

====

Molecular target: UniProtKB P49841
Sequence (P49841 whole entry): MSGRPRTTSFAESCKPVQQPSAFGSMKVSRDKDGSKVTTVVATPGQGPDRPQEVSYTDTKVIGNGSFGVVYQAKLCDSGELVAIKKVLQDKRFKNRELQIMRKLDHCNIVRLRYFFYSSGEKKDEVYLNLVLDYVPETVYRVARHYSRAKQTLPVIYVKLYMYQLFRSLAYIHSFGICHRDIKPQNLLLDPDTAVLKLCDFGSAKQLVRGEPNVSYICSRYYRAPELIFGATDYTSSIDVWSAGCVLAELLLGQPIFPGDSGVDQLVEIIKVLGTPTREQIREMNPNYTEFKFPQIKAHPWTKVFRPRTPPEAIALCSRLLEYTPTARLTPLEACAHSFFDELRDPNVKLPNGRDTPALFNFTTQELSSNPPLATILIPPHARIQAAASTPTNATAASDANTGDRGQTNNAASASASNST
Assay: Inhibition of recombinant human GSK-3beta using GS-2 peptide as substrate incubated for 30 mins in presence of ATP by kinase-glo luminescence assay
Rule: IC50 below 7 µM gives Criterion met, anything at or above gives Criterion not met.

Illustrative cases are given below, each with its answer.
Compound	System Name	Classification
C=CC(=O)N1C(=O)CC(c2ccc(Cl)cc2)Sc2ccccc21 (stereo unspecified)	UniProtKB P49841	Criterion met
C=CC(=O)N1C(=O)CC(c2cccs2)Sc2ccccc21 (stereo unspecified)	UniProtKB P49841	Criterion met
C=CC(=O)N1C(=O)CC(c2ccc(N3CCOCC3)cc2)Sc2ccccc21 (stereo unspecified)	UniProtKB P49841	Criterion not met
C=CC(=O)N1C(=O)CC(C)Sc2ccccc21 (stereo unspecified)	UniProtKB P49841	Criterion not met
C=CC(=O)N1C(=O)CC(c2cccc(Cl)c2)Sc2ccccc21 (stereo unspecified)	UniProtKB P49841	Criterion met
CCC(=O)N1C(=O)CC(c2cccs2)Sc2ccccc21 (stereo unspecified)	UniProtKB P49841	Criterion not met
C=CC(=O)N1C(=O)CC(c2ccc(C#N)cc2)Sc2ccccc21 (stereo unspecified)	UniProtKB P49841	Criterion met
C=CC(=O)N1C(=O)CC(c2ccccc2)Sc2ccccc21 (stereo unspecified)	UniProtKB P49841	Criterion met

Data request: Please let me know if C=CC(=O)N1C(=O)CC(c2ccc(-c3ccccc3)cc2)Sc2ccccc21 (stereo unspecified) shows IC50 below 7 µM.
Data returned: Criterion met

Data request: Note, next up: C=CC(=O)N1C(=O)CC(c2ccccc2Cl)Sc2ccccc21 (stereo unspecified)
Data returned: Criterion met

Data request: Note, next up: C=CC(=O)N1C(=O)CC(c2ccccc2C(F)(F)F)Sc2ccccc21 (stereo unspecified)
Data returned: Criterion met

Data request: Note, next up: C=CC(=O)N1C(=O)CC(c2ccc(F)cc2)Sc2ccccc21 (stereo unspecified)
Data returned: Criterion met

Data request: Note, next up: C=CC(=O)Nc1ccc(C2CC(=O)Nc3ccccc3S2)cc1 (stereo unspecified)
Data returned: Criterion not met

Data request: Note, next up: C=CC(=O)N1C(=O)CC(c2ccc(C(=O)OC)cc2)Sc2ccccc21 (stereo unspecified)
Data returned: Criterion met

====

Assay: Cytotoxicity against human L02 cells assessed as cell viability at 0 to 50 uM incubated for 24 hrs by CCK-8 assay relative to control
Format: cell-based
Conditions: dose 0-50 µM, read-out: Activity
Listing of recorded viability at 24 h, up to 50 µM by entry.

The examples below pair each entry with its known result.
Compound	viability at 24 h, up to 50 µM
C=CC(=O)N1C(=O)CC(c2ccc(F)cc2)Sc2ccccc21 (stereo not drawn)	> 80%
C=CC(=O)N1C(=O)CC(c2ccc(Cl)cc2)Sc2ccccc21 (stereo not drawn)	> 80%

Then this compound:
Data request: Look up viability at 24 h, up to 50 µM for this compound: C=CC(=O)N1C(=O)CC(c2ccc(C(=O)OC)cc2)Sc2ccccc21 (stereo not drawn)
Data returned: > 80%

====

Molecular target: Glycogen synthase kinase-3 alpha (Homo sapiens)
Test: Inhibition of recombinant human GSK-3alpha at 100 uM by mobility shift assay relative to control
Listing of recorded inhibition by entry.
Field: numeric (%). Do not append units.

Molecule	inhibition, %
C=CC(=O)N1C(=O)CC(c2ccc(C#N)cc2)Sc2ccccc21 (stereo unspecified)	92.9
C=CC(=O)N1C(=O)CC(c2ccc(C(F)(F)F)cc2)Sc2ccccc21 (stereo unspecified)	20

Data request: Look up inhibition for this molecule: C=CC(=O)N1C(=O)CC(c2ccc([N+](=O)[O-])cc2)Sc2ccccc21 (stereo unspecified)
Data returned: 50.7

Data request: Note, next up: C=CC(=O)N1C(=O)CC(c2ccccc2C(F)(F)F)Sc2ccccc21 (stereo unspecified)
Data returned: 32

Data request: Note, next up: C=CC(=O)N1C(=O)CC(c2ccc(Br)cc2)Sc2ccccc21 (stereo unspecified)
Data returned: 33.4

Data request: Note, next up: C=CC(=O)N1C(=O)CC(c2ccccc2Cl)Sc2ccccc21 (stereo unspecified)
Data returned: 61.8

====

Molecular target: Glycogen synthase kinase-3 alpha (Homo sapiens)
Assay: Inhibition of recombinant human GSK-3alpha at 100 uM by mobility shift assay relative to control
Outcome Measure: inhibition (%)
Field: numeric (%). Do not append units.

The examples below pair each entry with its known result.
Compound	inhibition (%)
C=CC(=O)N1C(=O)CC(c2ccc(F)cc2)Sc2ccccc21 (centres undefined)	87.3
C=CC(=O)N1C(=O)CC(c2ccc(Cl)cc2)Sc2ccccc21 (centres undefined)	46.7
C=CC(=O)N1C(=O)CC(c2ccc(-c3ccccc3)cc2)Sc2ccccc21 (centres undefined)	13.4

Then this compound:
Data request: Look up inhibition for this compound: C=CC(=O)N1C(=O)CC(c2ccc(C)cc2)Sc2ccccc21 (centres undefined)
Data returned: 30
